// endpoint MIC / system Staphylococcus aureus CIP 53156

# Compound, MIC / µg/mL
rows = [
    ("COC1C(OCC2C(C)OC(=O)/C=C/C(C)C(OC3OC(C)CC4(OC(=O)OC4C)C3O)C(C)CC(C)C(=O)/C=C/C3OC32)OC(C)C(O)C1OC (stereo not shown) [P10a, aldgamycin G]", 1),
    ("COc1cccc2c1C(=O)c1c(O)c3c(c(O)c1C2=O)CC(C)(O)CC3OC1OC(C)C(O)C(OC)C1O (stereo not shown) [P11, mutactimycin C]", 10),
    ("COC1C(OCC2/C=C/C=C/C(=O)C(C)CC(C)C(OC3OC(C)CC(O)(C(C)O)C3O)C(C)/C=C/C(=O)OC2C)OC(C)C(O)C1OC (stereo not shown) [P10b, aldgamycin P10b]", 1),
    ("COC1C(O)C(C)OC(OC2CC(C)(O)Cc3c(O)c4c(c(O)c32)C(=O)c2c(OC3OC(C)C(O)C(O)C3O)cccc2C4=O)C1O (stereo not shown) [PR, mutactimycin PR]", 50),
]
